The reported measurements were obtained from the Kinase Knowledgebase extract (Sharma et al. 2016).

# subject-of-test: PIK3CB (Human) (UniProt P42338)
# Sequence (P42338 whole entry, looked up): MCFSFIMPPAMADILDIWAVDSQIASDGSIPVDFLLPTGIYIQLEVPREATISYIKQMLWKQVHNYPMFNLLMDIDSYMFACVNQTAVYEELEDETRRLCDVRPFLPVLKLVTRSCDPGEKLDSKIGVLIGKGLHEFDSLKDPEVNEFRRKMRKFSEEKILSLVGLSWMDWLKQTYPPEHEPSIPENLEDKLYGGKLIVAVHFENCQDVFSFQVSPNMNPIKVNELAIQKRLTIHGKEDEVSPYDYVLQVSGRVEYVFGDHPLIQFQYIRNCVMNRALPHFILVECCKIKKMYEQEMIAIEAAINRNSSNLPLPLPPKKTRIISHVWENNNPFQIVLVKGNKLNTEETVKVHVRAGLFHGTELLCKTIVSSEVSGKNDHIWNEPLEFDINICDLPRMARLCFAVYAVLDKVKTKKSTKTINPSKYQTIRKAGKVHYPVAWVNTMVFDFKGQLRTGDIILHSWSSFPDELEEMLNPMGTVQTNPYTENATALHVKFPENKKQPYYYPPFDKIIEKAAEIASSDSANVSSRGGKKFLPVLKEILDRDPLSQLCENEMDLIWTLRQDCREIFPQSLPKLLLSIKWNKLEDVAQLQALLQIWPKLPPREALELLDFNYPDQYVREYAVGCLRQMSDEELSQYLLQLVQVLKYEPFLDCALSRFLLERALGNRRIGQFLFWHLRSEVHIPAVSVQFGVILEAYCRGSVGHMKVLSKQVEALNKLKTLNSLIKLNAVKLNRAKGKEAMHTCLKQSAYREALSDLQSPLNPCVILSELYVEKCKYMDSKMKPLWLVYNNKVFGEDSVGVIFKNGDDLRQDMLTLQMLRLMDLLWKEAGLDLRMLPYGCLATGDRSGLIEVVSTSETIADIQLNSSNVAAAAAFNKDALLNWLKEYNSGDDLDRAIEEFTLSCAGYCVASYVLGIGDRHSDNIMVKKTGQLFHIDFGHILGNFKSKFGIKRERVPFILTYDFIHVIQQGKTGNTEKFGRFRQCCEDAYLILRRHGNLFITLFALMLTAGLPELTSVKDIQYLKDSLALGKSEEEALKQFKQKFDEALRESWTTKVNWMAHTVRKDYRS
pIC50: −log10 of the molar value.
attribute-measured: pIC50

Please review the entries below; each comes with its answer.
Value of measured pIC50 for the entry CN(C)C(=O)c1ccc(NC(=O)Nc2ccc(-c3nc(N4CCOCC4)c4ccc(-c5cccnc5F)cc4n3)cn2)cc1 : > 7.30

Field pIC50 (entry CN(C)C(=O)c1ccc(NC(=O)Nc2ccc(-c3nc(N4CCOCC4)c4ccc(-c5cccnc5)cc4n3)cc2)c(F)c1 ) reads 6.30 to 7.30

The recorded pIC50 for entry Cc1ccc(-c2ccc3c(N4CCOCC4)nc(-c4ccc(NC(=O)Nc5ccc(C(=O)N(C)C)cc5)cc4)nc3c2)o1 equals 6.00 to 6.30

***
For record CN(C)C(=O)c1ccc(NC(=O)Nc2ccc(-c3nc(N4CCOCC4)c4ncc(-c5cccc(S(C)(=O)=O)c5)cc4n3)cc2F)cc1 the listed pIC50 is 6.30 to 7.30

Measured pIC50, CN(C)C(=O)c1ccc(NC(=O)Nc2ccc(-c3nc(N4CCOCC4)c4ccc(-c5ccco5)cc4n3)cc2)cc1 : > 7.30

Form field pIC50, entry CN(C)C(=O)c1ccc(NC(=O)Nc2ccc(-c3nc(N4CCOCC4)c4ncc(-c5cccnc5F)cc4n3)cn2)cc1 : > 7.30

# compound CN(C)C(=O)c1ccc(NC(=O)Nc2ccc(-c3nc(N4CCOCC4)c4cc(F)c(-c5cnn(C)c5)cc4n3)cn2)cc1 ; its pIC50 = > 7.30
